Test system: NCI/ADR-RES ovarian
protocol: NCI tumour cell line growth inhibition, 48 h
Below, each of the compounds is paired with its reported GI50 value.

Completed entries (count: 8):
[[record]]
compound = "C#CC#CC#CC#CC#CC#CC#CC#CCC1OCC(COC(=O)O[C@@H](C(=O)O[C@H]2C[C@@]3(O)[C@@H](OC(=O)c4ccccc4)[C@@H]4[C@]5(OC(C)=O)CO[C@@H]5C[C@H](O)[C@@]4(C)C(=O)[C@H](OC(C)=O)C(=C2C)C3(C)C)[C@@H](NC(=O)c2ccccc2)c2ccccc2)O1 (some centres not stated)"
result = "> 33.3 µM"

[[record]]
compound = "COc1ccc2c(c1)NC1=C(C(=O)OC1)C2c1cc(OC)c2c(c1)OCO2 (configuration not stated)"
result = "< 0.0165 µM"

[[record]]
compound = "Cc1cc([N+](=O)[O-])c(NS(=O)(=O)c2cccc(C(=O)O)c2)cc1-c1cccnc1"
result = "> 100 µM"

[[record]]
compound = "CSC1=C(N)C(=O)c2[nH]cc(CO)c2C1=N"
result = "0.239 µM"

[[record]]
compound = "C[C@H]1CC[C@@]2(NC1)O[C@H]1C[C@H]3[C@@H]4CC[C@H]5C[C@@H](O)CC[C@]5(C)[C@H]4CC[C@]3(C)[C@H]1[C@@H]2C"
result = "8.71 µM"

[[record]]
compound = "Cc1ccccc1OCC(O)CN1CCN(c2ccc(Cl)cc2)CC1 (configuration not stated)"
result = "14.8 µM"

[[record]]
compound = "CN(C)CCN1C(=O)c2c(c3c4ccccc4n4c3c3c2c2ccccc2n3C2CC(O)C(O)C4(C)O2)C1=O (configuration not stated)"
result = "8.2 µM"

[[record]]
compound = "Cc1ccc(S(=O)(=O)c2c(COC(=O)c3cccc(C)c3)c(-c3ccccc3)nn2C)cc1"
result = "> 100 µM"


Let me check: CC1(C)C2CCC13C(=O)C1OC3(C2)C2C(=O)c3ccccc3C(=O)C12 (configuration not stated) , system NCI/ADR-RES ovarian, measured GI50 is 12.1 µM
